Test system: E. affinis
Experiment: Copepod assay (Eurytemora affinis)
Type: in vivo
Conditions: 5 ppm
Method: Cultures of Eurytemora affinis were continuously maintained in 15 seawater in a 8/16 hours light/dark regime fed every 48 hours on Isochrysis galbana. Toxicity bioassays are conducted on early instar naupliar larvae (chronic mortality/fecundity assay) or adults (acute LC50 assay). Larvae were collected as follows. Cultures were filtered with a 200 m Nitex filter to separate the adults from earlier stages. […]
# Toxicity Data: time to toxic effect at 5 ppm listing for each entry below

The cases that follow already have their Toxicity Data: time to toxic effect at 5 ppm on record.
compound=Cc1ccc2c(c1)C(=O)c1ccccc1C2=O reading="5 ppm < 45 min"
compound=O=C1C=CC(=O)c2ccccc21 reading="5 ppm < 10 min"

[ask] Given the compound CC1=CC(=O)c2ccccc2C1=O , what is its reported Toxicity Data: time to toxic effect at 5 ppm?
[reply] 5 ppm < 15 min

[ask] Given the compound CC1=CC(=O)c2c(O)cccc2C1=O [compound 1, 2-methyl-5-hydroxy-1,4-napthoquinone] , what is its reported Toxicity Data: time to toxic effect at 5 ppm?
[reply] 5 ppm < 10 min

[ask] Given the compound CC1(S(=O)(=O)[O-])CC(=O)c2ccccc2C1=O.[Na+] (centres unmarked) , what is its reported Toxicity Data: time to toxic effect at 5 ppm?
[reply] 5 ppm < 15 min

[ask] Given the compound O=C1c2ccccc2C(=O)c2c(Cl)cccc21 , what is its reported Toxicity Data: time to toxic effect at 5 ppm?
[reply] 5 ppm < 5 hours

[ask] Given the compound O=C1c2ccccc2C(=O)c2ccccc21 , what is its reported Toxicity Data: time to toxic effect at 5 ppm?
[reply] 5 ppm < 4 hours

[ask] Given the compound O=C(O)c1ccc2c(c1)C(=O)c1ccccc1C2=O , what is its reported Toxicity Data: time to toxic effect at 5 ppm?
[reply] 5 ppm < 5 hours
